# procedure details: Pharmacokinetic evaluation after subcutaneous injection into rats
# Type: in vivo
# experimental parameters: rat, plasma, sc, 28 mg/kg GS-441524
observed property: Cmax
# include the unit after the value

q: Which Cmax value is on record for `N#C[C@@]1(c2ccc3c(N)ncnn23)O[C@H](CO)[C@@H](O)[C@H]1O` ?
a: 8170 ng/mL

Taken from patent US20260165968A1.
